Provide the reported growth of each item.
System: SK-OV-3 ovarian
experimental protocol: NCI-60 one-dose screen, 48 h (100 = growth as untreated, 0 = no growth, -100 = all killed)
protocol conditions: 10 µM
This is part of a sample that, as a whole, favours compounds with a hit. Of some 83,000 tested, about 20% had one in any assay.
One number for each entry, in %.

Answered examples (2):
O=C(COc1ccc(NC(=O)Nc2ccc(Cl)cc2)cc1)N=Nc1c(O)[nH]c2ccc([N+](=O)[O-])cc12; 85.2
COc1ccc([C@H]2C(C(=O)c3ccc(Cl)cc3)C3(N[C@@H]2c2ccccc2)C(=O)Nc2ccc(Br)cc23)cc1 (stereo partly drawn); 22.6

Now let's try a different one.
Request: Would you mind telling me what growth value was observed for NS(=O)(=O)c1ccc(NC(=O)CSc2ccc(-c3ccccc3)nn2)c(Br)c1 ?
Result: 98.7
